# protocol description: in vivo
# recorded conditions: female, New Zealand white (INRA 1777 line), rabbit, in vivo, iv, VSS
readout label: Vd (L/kg)
I only need the number, in L/kg, no unit after it.

# input Fill in the blank: the reported Vd of ClC(Cl)=C(c1ccc(Cl)cc1)c1ccc(Cl)cc1 [pp′DDE] is ____.
# output 23.2

Then this compound:
# input Fill in the blank: the reported Vd of Clc1c(Cl)c(Cl)c(Cl)c(Cl)c1Cl [HCB, hexachlorobenzene] is ____.
# output 28.1

* * *

Measured concentration at 0.67 h by item
# protocol description: TK assay, intravenous mixture dosing: serum concentrations and noncompartmental analysis (sparse data)
# recorded conditions: female, New Zealand white, rabbit, in vivo, iv, Serum concentration, rabbit 10, 0.67 h
I only need the number, in nM, no unit after it.

# input Fill in the blank: the reported concentration at 0.67 h of "Cl[C@H]1[C@H](Cl)[C@@H](Cl)[C@H](Cl)[C@@H](Cl)[C@@H]1Cl" is ____.
# output 320

# input Fill in the blank: the reported concentration at 0.67 h of "Brc1ccc(Oc2ccc(Br)cc2Br)c(Br)c1" is ____.
# output 1990
